test: CREB reporter modulators under forskolin, primary screen, cell-based, PC12, CRE-LacZ reporter, forskolin-stimulated (AID 1146); conditions: luminescence, 4.5 h, higher = more signal, called active from +8 up or from −8 down;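 further: PC12 cells with 6xCRE LacZ reporter stimulated by forskolin 10 µM; beta-galactosidase reporter signal reflecting CREB driven transcription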
The source made the active and inactive calls.
parameter_measured: z-score

Task item: Supply recorded z-score for `O=C1O[C@H](c2ccccc2)[C@H](c2ccccc2)N2[C@H]1[C@@H](C(=O)N1CCN(c3ncccn3)CC1)[C@]1(C(=O)Nc3ccc(C#CC4(O)CCCCCC4)cc31)[C@H]2c1ccc(O)cc1` here.
Reply: -0.296 (inactive)

Task item: Supply recorded z-score for `C=C(C(=O)CC[C@@H](OC(=O)c1cccnc1)c1cccc(OCCO)c1)C(C)C` here.
Reply: -1.24 (inactive)

Task item: Supply recorded z-score for `C=C(CCCC)/C(=C/C[C@@H](OC(C)=O)c1ccc(OCCO)cc1)c1cc(C(=O)OC)ccc1OC` here.
Reply: 0.574 (inactive)

Task item: Supply recorded z-score for `CC(=O)NCCCC[C@@H]1NC(=O)[C@H]2C[C@@H](C(=O)NCCCCCN)[C@@H](c3ccc(O)cc3)N2C1=O` here.
Reply: 0.126 (inactive)

Task item: Supply recorded z-score for O=C1C2C=CC(C(O)C3CCCCC3)N(Nc3ccccc3F)C2C(=O)N1c1ccccc1 (stereo not drawn) here.
Reply: -0.904 (inactive)

Task item: Supply recorded z-score for COc1cc(CO)cc(I)c1O[C@H]1C=C(C(=O)NCCO)C[C@@H](N(CCN2CCOCC2)C(=O)C2CCCO2)[C@@H]1O (stereo partly drawn) here.
Reply: -1.04 (inactive)

Task item: Supply recorded z-score for `O=C(CS)NCCCCCCNC(=O)[C@H]1C[C@H]2C(=O)NCC(=O)N2[C@H]1c1cccc(OCCO)c1` here.
Reply: -0.963 (inactive)

Task item: Supply recorded z-score for `C=CCN1C(=O)[C@]2(O[C@H](CCO)[C@@H]([Si](C)(C)c3ccc(OC)cc3)[C@@H]2C)c2cc(N3C(=O)c4ccccc4Oc4ccccc43)ccc21` here.
Reply: -3.24 (inactive)

Task item: Supply recorded z-score for `C=C[C@H](OC)[C@@H](O)c1ccc(OC)c(O)c1` here.
Reply: -0.904 (inactive)

Task item: Supply recorded z-score for CC1(C)OB(/C=C\CC(OC(=O)c2ccncc2)c2ccccc2)OC1(C)C (stereo not drawn) here.
Reply: 0.174 (inactive)

Task item: Supply recorded z-score for CC(C)N1CC=CC23O[C@@H]4/C=C\CCCOC(=O)C4[C@H]2C(=O)N(C(C)CO)[C@@H]3C1=O (stereo partly drawn) here.
Reply: -0.869 (inactive)

Task item: Supply recorded z-score for `COC(=O)[C@@]1(Cc2ccc(F)cc2)[C@H]2c3cc(C(=O)N4CCCC4)n(CCSCCO)c3C[C@H]2CN1C(=O)c1ccccc1` here.
Reply: 1.13 (inactive)

Task item: Supply recorded z-score for `COC(=O)[C@@]1(Cc2ccc(F)cc2)[C@H]2c3cc(C(=O)N(C)C)n(Cc4ccc(C(F)(F)F)nc4)c3C[C@H]2CN1C(=O)c1ccccc1` here.
Reply: 1.13 (inactive)

* * *

test: small-molecule microarray binders of probe aShh, primary screen, biochemical, biotinylated probe, 635/667 nm fluorescence (AID 1114); conditions: higher = more signal;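 further: probe is biotin-labelled aShh protein from a stem cell growth factor screen; measures binding of labelled protein to compounds printed on the slide; score merges feature fluorescence at 667 nm with signal-to-noise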
parameter_measured: composite z-score
Reply with just the number.

Task item: Supply recorded composite z-score for `CN(C)CCCCNC(=O)[C@H]1C[C@H]2C(=O)N[C@@H](CCCCN(C)C)C(=O)N2[C@H]1c1ccc(O)cc1` here.
Reply: -0.229

Task item: Supply recorded composite z-score for `COc1ccc(CCNC(=O)[C@@]2(c3ccc([N+](=O)[O-])cc3)CC(=O)N(C3CCCCC3)[C@@H]2c2ccc(CO)cc2I)cc1` here.
Reply: 0.108

Task item: Supply recorded composite z-score for `CN(C)CCCC[C@@H]1NC(=O)[C@H]2C[C@@H](C(=O)NCCCCCCNC(=O)CS)[C@@H](c3cccc(OCCO)c3)N2C1=O` here.
Reply: -0.0709

Task item: Supply recorded composite z-score for `CCCCCCc1nc(Cc2cc(OC)c(OC)c(OC)c2)c(C)c2c1[Si](C(C)C)(C(C)C)OC2` here.
Reply: 0.14

Task item: Supply recorded composite z-score for `C[C@]1(C(=O)NC2CC2)c2ccccc2C(=O)N(Cc2cc(F)cc(C(F)(F)F)c2)[C@H]1c1ccc(CO)cc1` here.
Reply: -0.469

Task item: Supply recorded composite z-score for `C=CCOC(=O)[C@H]1[C@@H]2C(=O)O[C@@H](c3ccccc3)[C@@H](c3ccccc3)N2[C@@H](c2ccc(OCCOC(=O)[C@H]3C[C@H]4C(=O)NCC(=O)N4[C@H]3c3ccc(O)cc3)cc2)[C@]12C(=O)Nc1ccccc12` here.
Reply: -0.16

Where do these numbers come from? They come from PubChem BioAssay.
